system: ACHN renal; assay: NCI tumour cell line growth inhibition, 48 h
Consider the following compounds and their measured GI50 readings.

Known results for compounds:
{"columns": ["COMPOUND", "RESULT"],
 "data": [
  ["c1ccc(-c2nc(N3CCNCC3)c3nc(-c4ccccc4)oc3n2)cc1", "1.71 µM"],
  ["CCCC[C@@H](COC(=O)N(Cc1cccs1)Cc1cccs1)NC(=O)N[C@@H](CC(=O)OC)c1ccc2c(c1)OCO2", "> 100 µM"],
  ["COc1ccc([C@H]2O[C@@H](CO)C[C@]2(O)c2ccc(OC)cc2)cc1", "> 100 µM"],
  ["COc1ccc(/C=C2\\COc3ccc(-c4ccccc4)cc3C2=O)cc1O", "3.13 µM"],
  ["COC(=O)CCC1=C(C)c2cc3[n-]c(cc4nc(cc5[n-]c(cc1n2)c(CCC(=O)OC)c5C)C=C4C)cc3C.[Cd+2]", "16.2 µM"],
  ["CC#CC(=O)N1CCC[C@H]1c1nc(-c2ccc(C(=O)Nc3ccccn3)cc2)c2c(N)nccn12", "23.8 µM"],
  ["CC[C@H](C)[C@H](NC(=O)C12C3C4C1C1C2C3C41NC(C)=O)C(=O)N(C)[C@H](C[C@@H](OC(C)=O)c1nc(C(=O)N[C@@H](Cc2ccccc2)C[C@H](C)C(=O)OC)cs1)C(C)C (stereo partly drawn)", "2.53 µM"]
]}

Shifting focus to the compound that follows.
Recorded GI50 of FC(F)(F)c1ccc(-c2cnc(Br)nc2NC2CCCCCC2)cc1 , please.
> 100 µM

---

test system: HL-60(TB) leukemia; test: NCI tumour cell line growth inhibition, 48 h
Consider the following compounds and their measured TGI readings.

{"columns": ["COMPOUND", "TGI"],
 "data": [
  ["Cc1cccc2c1C(=O)C(C1OC(=O)c3ccccc31)C2 (configuration not stated)", "> 100 µM"],
  ["O=Cc1coc2ccccc2c1=O", "42.3 µM"],
  ["COc1ccccc1/C=C\\c1cc(OC)c(OC)c(OC)c1", "20.1 µM"]
]}

Recorded TGI of COc1ccc(O)c2c1C(=O)CCCC2=O , please.
> 100 µM

Recorded TGI of N#Cc1c(-c2ccc(Cl)cc2)c(C#N)c(=O)n(NS(=O)(=O)c2ccccc2)c1-c1ccccc1 , please.
> 25 µM

Recorded TGI of O=C1OC(CN2CCN(c3ccccc3)CC2)CN1C(=S)Nc1ccccc1 (configuration not stated) , please.
> 100 µM

Recorded TGI of C[C@@H]1C(O)CC[C@H](C)C12CC=CC2=O (some centres not stated) , please.
> 100 µM

---

tested on: SK-MEL-5 melanoma; assay: NCI tumour cell line growth inhibition, 48 h
ENDPOINT NAME: TGI (µM)
// return numeric value only (unit: µM, not printed)

{"columns": ["COMPOUND", "TESTED TARGET", "TGI (µM)"],
 "data": [
  ["CCNCCNc1cc(-c2ccc(F)cc2)c(C#N)c2nc3ccccc3n12", "SK-MEL-5 melanoma", 3.18],
  ["COC(=O)C1(Cc2cccc(Cl)c2)CCCCCCN1C(=O)c1ccccc1 (centres undefined)", "SK-MEL-5 melanoma", 26.6],
  ["O=C(C1OC1c1ccc([N+](=O)[O-])cc1)C12CC3CC(CC(C3)C1)C2 (centres undefined)", "SK-MEL-5 melanoma", 29.1],
  ["COC(=O)CCC1=C(C)c2cc3[n-]c(cc4nc(cc5[n-]c(cc1n2)c(CCC(=O)OC)c5C)C=C4C)cc3C.[Cd+2]", "SK-MEL-5 melanoma", 2.83],
  ["O=C1c2cc(CCl)sc2C(=O)c2ccsc21", "SK-MEL-5 melanoma", 0.0821]
]}

Recorded TGI of O=[N+]([O-])c1ccccc1C1N2CCCCC2[C@@H]2c3[nH]c4ccccc4c3CCN12 (some centres undefined) , please.
26.2

Recorded TGI of CC(=O)c1cccc(NC2C(N)C(NC(=O)N(C)C)(C(C)O)C(C)(O)C2(O)COC(=O)c2c(C)cccc2O)c1 (centres undefined) , please.
0.0227

Recorded TGI of CCCCCCCCCN1CCC(=O)C(C(=O)OC)C1 (centres undefined) , please.
33

Recorded TGI of C[C@@H]1CC[C@@]2(OC1)O[C@H]1C[C@H]3[C@@H]4CC=C5C[C@@H](O[C@@H]6O[C@H](CO)[C@@H](O[C@@H]7O[C@@H](CO)[C@H](O)[C@H]7O)[C@H](O)[C@H]6O[C@@H]6O[C@@H](C)[C@H](O)[C@@H](O)[C@H]6O)CC[C@]5(C)[C@H]4CC[C@]3(C)[C@H]1[C@@H]2C , please.
2.95

Recorded TGI of Fc1ccccc1C1CC(C(c2ccccc2)c2ccccc2)=Nc2ccccc2S1 (centres undefined) , please.
24.9

Recorded TGI of O=C(/C=C/c1cccc(Cl)c1)c1ccc(Cl)cc1Cl , please.
17.5

Recorded TGI of O=C(CCN1CCCC1)Nc1ccc2c(NCCCc3ccccc3)c3ccccc3nc2c1 , please.
2.97

Recorded TGI of COC(=O)C1=C(C)NC(C)=C([N+](=O)[O-])C1c1cccc(NO)c1 (centres undefined) , please.
15

Recorded TGI of Cc1cn(C2CC(N=[N+]=[N-])C(CO[Si](C)(C)C(C)(C)C)O2)c(=O)[nH]c1=O (centres undefined) , please.
32.4

Recorded TGI of CC(Cc1ccc(O)c(O)c1)C(C)Cc1ccc(O)c(O)c1 (centres undefined) , please.
32.9

Recorded TGI of CC(=O)OC1CCC2(C)C(=CC(C3C=C4CC(OC(C)=O)CCC4(C)C4=C3C3CC5OC6(CCC(C)CO6)C(C)C5C3(C)CC4)C3=C2CCC2(C)C3CC3OC4(CCC(C)CO4)C(C)C32)C1 (centres undefined) , please.
25.7

Recorded TGI of COc1cc(CC2c3cc(OC)c(OC)cc3CCN2C)c(Oc2cc3c(cc2OC)-c2c(OC)c(OC)c(OC)c4c2C(C3)N(C)CC4)cc1OC (centres undefined) , please.
13.4

Recorded TGI of NC(CSC(c1ccccc1)(c1ccccc1)c1ccc2ccccc2c1)C(=O)O (centres undefined) , please.
11.5

From: PubChem BioAssay (NCI)
